test system: UACC-257 melanoma; assay: NCI tumour cell line growth inhibition, 48 h
Readings of TGI for the listed compounds
property: TGI

compound	system_tested	property	reported
O=C(Nc1ccc(Cl)c([N+](=O)[O-])c1)Nc1nc2ccccc2s1	UACC-257 melanoma	TGI	6.99 µM
CCN1CC2=C(N=c3s/c(=C\c4ccc(Cl)cc4)c(=O)n3C2c2ccc(Cl)cc2)/C(=C/c2ccc(Cl)cc2)C1 (stereo not given)	UACC-257 melanoma	TGI	> 100 µM
COc1ccc(OC)c(C2CCc3nc4nc(N)nc(N)c4cc3C2)c1 (stereo not given)	UACC-257 melanoma	TGI	6.1 µM
CN(C)/[N+]([O-])=N/Oc1cc(Nc2cccc(C(=O)O)c2)c([N+](=O)[O-])cc1[N+](=O)[O-]	UACC-257 melanoma	TGI	> 100 µM
C=C[C@@H]1OC(=O)O[C@H]1CO	UACC-257 melanoma	TGI	> 100 µM
COC(CN(C)C(=O)C(C)NC(=O)c1ccccc1)OC (stereo not given)	UACC-257 melanoma	TGI	> 100 µM
CC(=O)N(C)OC(=O)CC(=O)c1ccccc1	UACC-257 melanoma	TGI	> 100 µM
Cn1ccnc1C(=O)/C=C/c1ccc(CC(=O)Nc2ccc(Cl)cc2)cc1	UACC-257 melanoma	TGI	> 25 µM
C=C(O)c1ccccc1C#Cc1ccccc1C(=O)OC	UACC-257 melanoma	TGI	> 10 µM
O=C(Cn1c(=O)ccn(C2OC(CO)C(O)C2F)c1=O)c1ccc(F)cc1 (stereo not given)	UACC-257 melanoma	TGI	> 100 µM

----------
tested on: HT29 colon; assay: NCI tumour cell line growth inhibition, 48 h
property: TGI

molecule	reported
COc1ccc(C(=O)Cn2c(C(=O)c3ccc(OC)cc3)nc3ccccc32)cc1	> 100 µM
Cc1cc2nc3n[nH]c(N)c3nc2cc1C	> 100 µM
Brc1cccc(/C=C/CN2CCN(CCOC(c3ccccc3)c3ccccc3)CC2)c1	24.2 µM
COc1ccc2[nH]c(CCNC(=O)c3cc([N+](=O)[O-])cc([N+](=O)[O-])c3)cc2c1	> 100 µM
O=C(Nc1ccc(Cl)c([N+](=O)[O-])c1)Nc1nc2ccccc2s1	11.6 µM
Cc1ccc(Nc2nc(=S)[nH]c3[nH]ncc23)cc1	> 100 µM
Cc1c(N2C(=O)/C(=C/C=C/c3ccccc3)N=C2c2ccccc2)c(=O)n(-c2ccccc2)n1C	54 µM
COc1ccc(OCC(=O)O)c2c1CCC(C(C)C)C2=O (stereo not drawn)	> 100 µM
O=C1C2C(C(=O)N1O)N(Cc1ccccc1)C(=O)N2Cc1ccccc1 (stereo not drawn)	> 100 µM
Cc1ccc(Nc2nc(NCCO)c3ccccc3n2)cc1C	10.6 µM
C[Si](C)(C)C#CCO[Si](C)(C)C	> 100 µM
Cc1ccc(S(=O)(=O)N/N=C(\CCN2CCCC2)CC(c2ccccc2)c2c(O)c3ccccc3oc2=O)cc1 (stereo not drawn)	> 100 µM
Cc1ccc(C)c(NC(=O)C(=O)C(c2cnc3ccc([N+](=O)[O-])cc3n2)[N+](=O)[O-])c1 (stereo not drawn)	> 100 µM

----------
system: U251 CNS; test: NCI tumour cell line growth inhibition, 48 h
property: TGI (µM)

molecule	system_tested	reported
O=C(Nc1ccc(S(=O)(=O)Nc2nccs2)cc1)c1cccnc1Nc1cccc(Cl)c1	U251 CNS	26.1
Cc1cc2c(c3c1c1ccccc1n3C)C(=O)C=CC2=O	U251 CNS	45.1
CCCCCCCCC[C@@H]1C[C@@H]2CCC3C(C(=O)OC)=C(C)NC(=N1)N32 (some centres undefined)	U251 CNS	16.8
